Entries annotated with measured residual activity
targetOfAssay: Serine/threonine-protein kinase Nek2 (Homo sapiens)
assaySetup: at 10 µM
Description: Millipore: Percentage of residual kinase activity of NEK2 at 10uM relative to control. Control inhibitor: Phosphoric acid* at 0.3uM. Buffer: 8 mM MOPS pH 7.0, 0.2 mM EDTA
propertyLabel: residual activity (%)

>>> readoutnumber("O=C1Cc2c([nH]c3ccc(Br)cc23)-c2ccccc2N1")
80
>>> readoutnumber("O=c1cc(N2CCOCC2)oc2c1ccc1ccccc12")
84
>>> readoutnumber("O=S(=O)(c1cccc2cnccc12)N1CCCNCC1")
100
>>> readoutnumber("Cn1c2ccccc2c2c3c(c4c5ccccc5n(CCC#N)c4c21)CNC3=O")
82
>>> readoutnumber("O=C1Nc2ccccc2/C1=C\\c1c(Cl)[nH]c2ccccc12")
77
>>> readoutnumber("Nc1ncnc2c1cnn2-c1ccccc1")
99
>>> readoutnumber("NC(=O)Nc1sc(-c2ccc(F)cc2)cc1C(N)=O")
58
>>> readoutnumber("O=C1NC(=O)c2c1c1c3ccccc3[nH]c1n1cncc21")
63
>>> readoutnumber("CC(C)c1nn(-c2c(Cl)cccc2Cl)c2nc(Cc3ccc(OCCO)cc3)[nH]c(=O)c12")
87
>>> readoutnumber("N#C/C(=C1/Nc2ccccc2S1)c1ccnc(NCCc2cccnc2)n1")
82
>>> readoutnumber("CC(C)(C)n1nc(Cc2cccc3ccccc23)c2c(N)ncnc21")
97
>>> readoutnumber("O=C(CCCc1ccc(-c2ccccc2F)cc1)Nc1ccc(O)cc1")
106
>>> readoutnumber("CC(C)(C)c1nc2c3ccc(F)cc3c3c(=O)[nH]ccc3c2[nH]1")
102
>>> readoutnumber("CCCCc1c(-c2ccc(OC)cc2)[nH]c2nccnc12")
83
>>> readoutnumber("CC(C)[C@H](CO)Nc1nc(Nc2cc(N)cc(Cl)c2)c2ncn(C(C)C)c2n1")
76

* * *

targetOfAssay: Tyrosine-protein kinase Fer (Homo sapiens) (UniProt P16591)
Sequence (P16591 whole entry, looked up): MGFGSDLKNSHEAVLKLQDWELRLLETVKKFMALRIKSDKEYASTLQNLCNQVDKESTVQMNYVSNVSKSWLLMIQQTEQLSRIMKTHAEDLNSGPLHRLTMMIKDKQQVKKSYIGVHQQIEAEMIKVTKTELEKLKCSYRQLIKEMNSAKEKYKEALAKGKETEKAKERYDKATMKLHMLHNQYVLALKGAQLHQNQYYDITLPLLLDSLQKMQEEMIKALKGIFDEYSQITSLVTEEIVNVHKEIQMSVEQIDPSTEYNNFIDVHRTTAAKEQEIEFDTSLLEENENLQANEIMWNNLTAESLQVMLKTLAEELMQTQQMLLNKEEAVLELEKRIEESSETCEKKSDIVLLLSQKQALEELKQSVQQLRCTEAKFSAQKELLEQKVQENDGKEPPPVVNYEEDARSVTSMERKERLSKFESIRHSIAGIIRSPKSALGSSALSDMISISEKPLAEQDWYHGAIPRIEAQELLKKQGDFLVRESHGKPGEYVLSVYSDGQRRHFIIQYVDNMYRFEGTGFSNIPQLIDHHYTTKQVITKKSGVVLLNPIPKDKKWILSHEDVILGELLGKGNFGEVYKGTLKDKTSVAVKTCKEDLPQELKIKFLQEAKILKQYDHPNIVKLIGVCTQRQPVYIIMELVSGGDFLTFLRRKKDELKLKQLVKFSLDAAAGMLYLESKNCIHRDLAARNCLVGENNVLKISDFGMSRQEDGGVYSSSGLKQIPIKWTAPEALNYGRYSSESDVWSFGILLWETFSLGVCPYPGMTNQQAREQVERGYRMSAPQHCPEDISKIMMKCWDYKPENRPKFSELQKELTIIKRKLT
assaySetup: at 1 µM
propertyLabel: residual activity (%)

>>> readoutnumber("Cc1cc(C)c(/C=C2\\C(=O)Nc3ccccc32)[nH]1")
100
>>> readoutnumber("COc1cc2ncnc(Nc3cccc(Cl)c3)c2cc1OC")
113
>>> readoutnumber("COc1cc2nccc(Oc3ccc(NC(=S)NC(=O)c4ccccc4C)cc3)c2cc1OC")
70
>>> readoutnumber("CCCCc1c(-c2ccc(OC)cc2)[nH]c2nccnc12")
84
>>> readoutnumber("CN(C)S(=O)(=O)c1ccc2c(c1)/C(=C/c1cc3c([nH]1)CCCC3)C(=O)N2")
59
>>> readoutnumber("O=C(CCCc1ccc(-c2ccccc2F)cc1)Nc1ccc(O)cc1")
109
>>> readoutnumber("CC(C)c1nn(-c2c(Cl)cccc2Cl)c2nc(Cc3ccc(OCCO)cc3)[nH]c(=O)c12")
100
>>> readoutnumber("O=C(c1ccccc1)c1ccc(N2CCOCC2)cc1O")
125
>>> readoutnumber("Nc1ncnc2c1c(-c1ccc(Oc3ccccc3)cc1)cn2C1CCCC1")
100
>>> readoutnumber("NC(=O)Nc1sc(-c2ccc(F)cc2)cc1C(N)=O")
83
>>> readoutnumber("N#Cc1c(NC(=O)c2cccc3ccccc23)sc2c1CCCC2")
89

* * *

Entries annotated with measured residual activity
targetOfAssay: Protein kinase C epsilon type (Homo sapiens) (UniProt Q02156)
Sequence (Q02156 whole entry): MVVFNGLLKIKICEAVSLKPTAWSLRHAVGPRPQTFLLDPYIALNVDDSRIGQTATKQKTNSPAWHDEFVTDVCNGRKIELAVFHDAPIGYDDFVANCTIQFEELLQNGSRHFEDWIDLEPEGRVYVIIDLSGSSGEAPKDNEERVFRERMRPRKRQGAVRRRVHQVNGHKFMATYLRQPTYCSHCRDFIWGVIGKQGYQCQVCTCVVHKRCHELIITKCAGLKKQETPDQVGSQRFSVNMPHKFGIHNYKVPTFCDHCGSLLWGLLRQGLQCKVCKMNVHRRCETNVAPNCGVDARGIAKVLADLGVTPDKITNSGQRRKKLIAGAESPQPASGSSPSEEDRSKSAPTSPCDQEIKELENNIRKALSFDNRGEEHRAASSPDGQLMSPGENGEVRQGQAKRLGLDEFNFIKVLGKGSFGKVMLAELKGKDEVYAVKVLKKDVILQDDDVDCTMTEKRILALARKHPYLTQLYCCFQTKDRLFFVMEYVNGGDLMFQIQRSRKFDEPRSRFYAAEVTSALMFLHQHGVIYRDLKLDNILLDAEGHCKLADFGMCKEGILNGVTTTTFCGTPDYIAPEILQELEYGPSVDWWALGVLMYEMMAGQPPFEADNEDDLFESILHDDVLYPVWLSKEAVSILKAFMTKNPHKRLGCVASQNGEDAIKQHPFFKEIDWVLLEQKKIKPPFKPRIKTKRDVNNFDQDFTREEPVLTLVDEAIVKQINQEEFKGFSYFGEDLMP
assaySetup: at 10 µM
propertyLabel: residual activity (%)

>>> readoutnumber("CC(C)(C)n1nc(Cc2cccc3ccccc23)c2c(N)ncnc21")
100
>>> readoutnumber("COc1ccc(-c2cnc3c(-c4ccsc4)cnn3c2)cc1")
100
>>> readoutnumber("CSc1nc(-c2ccc(F)cc2)c(-c2ccnc(NC(C)c3ccccc3)c2)[nH]1 (stereo unspecified)")
101
>>> readoutnumber("O=C1NC(=O)c2c1c1c3ccccc3[nH]c1n1cncc21")
94
>>> readoutnumber("O=c1cc(N2CCNCC2)oc2c(-c3ccccc3)cccc12")
98
>>> readoutnumber("CC(C)c1nn(-c2c(Cl)cccc2Cl)c2nc(Cc3ccc(OCCO)cc3)[nH]c(=O)c12")
82

Data provenance is ChEMBL document CHEMBL2218924.
